Taken from patent US20220117919A1.

Test: Food and acidic beverage effect on bioavailability of ATR-101 tablets, 3-way crossover plasma PK study
Type: in vivo, human
Conditions: both sexes, human, plasma, po, 500 mg, Treatment B (fed with water), single oral 500 mg; Geometric Mean; read-out: AUC0-inf
Where a name gives a salt, the structure may show the parent alone.
recorded_endpoint: AUC0-inf (ng·h/mL)
Express it in ng·h/mL; write the number only.

Requested read-out: AUC0-inf. Entry: CC(C)c1cccc(C(C)C)c1NC(=O)NCC1(c2ccc(N(C)C)cc2)CCCC1 [ATR-101, hydrochloride]
6740

* * *

Assay: Food and acidic beverage effect on bioavailability of ATR-101 tablets, 3-way crossover plasma PK study
Assay type: in vivo, human
Details: both sexes, human, plasma, po, 500 mg, Treatment B (fed with water), single oral 500 mg; Mean; read-out: Cmax
Experimental: To evaluate the effects of food and of an acidic beverage on bioavailability of ATR-101 tablets prepared according to Example 2 (see Table 2), an open-label, randomized, 3-period, 3-way crossover, 3-sequence study was carried out with fourteen healthy, adult, non-tobacco using male and female (non-childbearing potential only) human subjects. Three different treatments A, B, and C were administered as follows: […]
Counter-ions that a name gives are not always drawn.
recorded_endpoint: Cmax (ng/mL)
Express it in ng/mL; write the number only.

Requested read-out: Cmax. Entry: CC(C)c1cccc(C(C)C)c1NC(=O)NCC1(c2ccc(N(C)C)cc2)CCCC1 [ATR-101, hydrochloride]
1250
